assayExplanation: 13-week rat toxicity and toxicokinetic study
Format: in vivo
runConditions: female, Crl:CD(SD)IGS BR, rat, in vivo, po, 60 mg/kg/day, females, 60 mg/kg/day, Day 0; read-out: AUC0-24
Description: In two separate experiments, toxicology and toxicokinetic studies were performed. […] Blood samples were collected on Day 0 and Day 87 of the study from up to 3 animals/gender/group. For toxicology assessment, clinical observations, body weight and food consumptions measures were noted periodically during the study. […]
measurementType: AUC(0-t) (ng·h/mL)
All answers are understood in ng·h/mL, so give the number only.

Q: Tell me AUC(0-t) reported for `Clc1ccc([C@]23CNC[C@H]2C3)cc1Cl`
Result: 54400

---

assayExplanation: Single-dose (25 mg) gender study in males and females (DOV-947-005)
Format: in vivo, human
runConditions: male, human, in vivo; single oral dose 25 mg; Males (N = 32)
measurementType: AUC(0-t) (ng·h/mL)
All answers are understood in ng·h/mL, so give the number only.

Q: Tell me AUC(0-t) reported for Clc1ccc([C@]23CNC[C@H]2C3)cc1Cl [amitifadine]
Result: 1360

---

assayExplanation: 2-week rat toxicology and toxicokinetic study
Assay type: in vivo
runConditions: female, Crl:CD (SD)IGS BR, rat, in vivo, po, 40 mg/kg/day, females, 40 mg/kg/day, Day 13
measurementType: Cmax (ng/mL)
All answers are understood in ng/mL, so give the number only.

Q: Tell me Cmax reported for `Clc1ccc([C@]23CNC[C@H]2C3)cc1Cl`
Result: 3100

---

assayExplanation: 2-week dog toxicity and toxicokinetic study
Format: in vivo
runConditions: male, beagle, in vivo, po, 10 mg/kg/day, males, 10 mg/kg/day, Day 13
measurementType: Cmax (ng/mL)
All answers are understood in ng/mL, so give the number only.

Q: Tell me Cmax reported for Clc1ccc([C@]23CNC[C@H]2C3)cc1Cl [amitifadine]
Result: 1280

---

assayExplanation: 12-month dog toxicity and toxicokinetic study
Format: in vivo
runConditions: male, beagle, dog, plasma, po, 6 mg/kg/day, males, 6 mg/kg/day, Day 358; read-out: AUC0-24
Experimental: Blood samples were collected on Days 0, 91, 181, 268 and 358 from up to 4 animals/gender/group. Plasma samples collected on Days 91, 181, 268, as well as all plasma samples collected from the control group were not evaluated. For toxicology assessment four dogs of each gender were included in each group. Assessments included clinical observations, body weight, and food consumption measures which were recorded periodically during the study. […]
measurementType: AUC(0-t)

Q: Tell me AUC(0-t) reported for Clc1ccc([C@]23CNC[C@H]2C3)cc1Cl [amitifadine]
Result: 15800 ng·h/mL

---

assayExplanation: 12-month dog toxicity and toxicokinetic study
Type: in vivo
runConditions: female, beagle, dog, plasma, po, 6 mg/kg/day, females, 6 mg/kg/day, Day 358; read-out: AUC0-24
measurementType: AUC(0-t) (ng·h/mL)
All answers are understood in ng·h/mL, so give the number only.

Q: Tell me AUC(0-t) reported for `Clc1ccc([C@]23CNC[C@H]2C3)cc1Cl`
Result: 11100

---

assayExplanation: Rabbit developmental toxicity study with toxicokinetics
runConditions: female, New Zealand white, in vivo, po, pregnant rabbits, 3 mg/kg/day, GD 20
measurementType: Tmax (h)
All answers are understood in h, so give the number only.

Q: Tell me Tmax reported for `Clc1ccc([C@]23CNC[C@H]2C3)cc1Cl`
Result: 1

---

assayExplanation: 2-week rat toxicology and toxicokinetic study
Assay type: in vivo
runConditions: female, Crl:CD (SD)IGS BR, rat, in vivo, po, 40 mg/kg/day, females, 40 mg/kg/day, Day 0
measurementType: Tmax (h)
All answers are understood in h, so give the number only.

Q: Tell me Tmax reported for `Clc1ccc([C@]23CNC[C@H]2C3)cc1Cl`
Result: 4

---

assayExplanation: Single rising oral dose (10-150 mg IR) safety, tolerance and pharmacokinetics in healthy male volunteers
Type: in vivo, human
runConditions: male, human, plasma, oral, 100 mg, Median
measurementType: AUC(0-inf) (ng·h/mL)
All answers are understood in ng·h/mL, so give the number only.

Q: Tell me AUC(0-inf) reported for `Clc1ccc([C@]23CNC[C@H]2C3)cc1Cl`
Result: 4820

---

assayExplanation: 13-week mouse toxicity and toxicokinetic study
runConditions: female, Crl:CD-1(ICR) BR, in vivo, po, 100 mg/kg/day, Tmax
measurementType: Tmax (h)
All answers are understood in h, so give the number only.

Q: Tell me Tmax reported for Clc1ccc([C@]23CNC[C@H]2C3)cc1Cl [amitifadine]
Result: 1

---

assayExplanation: 13-week rat toxicity and toxicokinetic study
Type: in vivo
runConditions: female, Crl:CD (SD)IGS BR, rat, in vivo, po, 10 mg/kg/day, females, 10 mg/kg/day, Day 0
Procedure: In two separate experiments, toxicology and toxicokinetic studies were performed. […] Blood samples were collected on Day 0 and Day 87 of the study from up to 3 animals/gender/group. For toxicology assessment, clinical observations, body weight and food consumptions measures were noted periodically during the study. […]
measurementType: Tmax
Quote the value and follow it with the unit of measurement.

Q: Tell me Tmax reported for `Clc1ccc([C@]23CNC[C@H]2C3)cc1Cl`
Result: 1 h

---

assayExplanation: Single-dose (25 mg) food effect crossover study in 24 men (DOV 947-003)
Assay type: in vivo, human
runConditions: male, human, in vivo, po, single oral dose 25 mg, Fasted, 24 healthy male subjects
measurementType: Tmax (min)
All answers are understood in min, so give the number only.

Q: Tell me Tmax reported for `Clc1ccc([C@]23CNC[C@H]2C3)cc1Cl`
Result: 58.8

---

assayExplanation: Single dose 300 mg / 450 mg pharmacokinetic, safety and tolerability study in healthy male and female subjects
runConditions: female, human, plasma, po, 300 mg
measurementType: concentration at 10 h (ng/mL)
All answers are understood in ng/mL, so give the number only.

Q: Tell me concentration at 10 h reported for O=C1NCC2(c3ccc(Cl)c(Cl)c3)CC12 (stereo not shown)
Result: 1980

---

assayExplanation: Single rising oral dose (10-150 mg IR) safety, tolerance and pharmacokinetics in healthy male volunteers
Assay type: in vivo, human
runConditions: male, human, plasma, oral, 150 mg, Geometric Mean; read-out: MRT0-∞
measurementType: MRT inf

Q: Tell me MRT inf reported for Clc1ccc([C@]23CNC[C@H]2C3)cc1Cl [amitifadine]
Result: 5.97 h

---

assayExplanation: Single rising oral dose (10-150 mg IR) safety, tolerance and pharmacokinetics in healthy male volunteers
Type: in vivo, human
runConditions: male, human, plasma, oral, 25 mg, Geometric Mean; read-out: Tmax
measurementType: Tmax

Q: Tell me Tmax reported for `Clc1ccc([C@]23CNC[C@H]2C3)cc1Cl`
Result: 51.8 min

---

assayExplanation: 2-week rat toxicology and toxicokinetic study
Type: in vivo
runConditions: female, Crl:CD (SD)IGS BR, rat, in vivo, po, 40 mg/kg/day, females, 40 mg/kg/day, Day 0
measurementType: Cmax (ng/mL)
All answers are understood in ng/mL, so give the number only.

Q: Tell me Cmax reported for `Clc1ccc([C@]23CNC[C@H]2C3)cc1Cl`
Result: 4440

---

assayExplanation: 2-week dog toxicity and toxicokinetic study
Assay type: in vivo
runConditions: male, beagle, in vivo, po, 5 mg/kg/day, males, 5 mg/kg/day, Day 0
Experimental: Blood samples were collected on Day 0 and Day 13 of the study from up to 2 animals/gender/group. Clinical pathology evaluations (hematology and serum chemistry) were performed prior to the initiation of treatment (Week −1) and just prior to the scheduled necropsy. At termination, necropsies were conducted and selected organs were weighed. Selected tissues were examined microscopically for animals in the control and high-dose groups.
measurementType: Tmax (h)
All answers are understood in h, so give the number only.

Q: Tell me Tmax reported for `Clc1ccc([C@]23CNC[C@H]2C3)cc1Cl`
Result: 1

---

assayExplanation: 13-week rat toxicity and toxicokinetic study
Assay type: in vivo
runConditions: male, Crl:CD(SD)IGS BR, rat, in vivo, po, 60 mg/kg/day, males, 60 mg/kg/day, Day 0
Experimental: In two separate experiments, toxicology and toxicokinetic studies were performed. […] Blood samples were collected on Day 0 and Day 87 of the study from up to 3 animals/gender/group. For toxicology assessment, clinical observations, body weight and food consumptions measures were noted periodically during the study. […]
measurementType: Cmax (ng/mL)
All answers are understood in ng/mL, so give the number only.

Q: Tell me Cmax reported for Clc1ccc([C@]23CNC[C@H]2C3)cc1Cl [amitifadine]
Result: 3680

---

assayExplanation: Single dose 300 mg / 450 mg pharmacokinetic, safety and tolerability study in healthy male and female subjects
runConditions: both, human, plasma, po, 450 mg
measurementType: concentration at 0 h (ng/mL)
All answers are understood in ng/mL, so give the number only.

Q: Tell me concentration at 0 h reported for O=C1NCC2(c3ccc(Cl)c(Cl)c3)CC12 (stereo not shown)
Result: 0
